Molecular target: GPR6 (Homo sapiens, UniProt P46095)
Construct: expressed in transfected cells; host or cells: CHO cells
Sequence (P46095 whole entry): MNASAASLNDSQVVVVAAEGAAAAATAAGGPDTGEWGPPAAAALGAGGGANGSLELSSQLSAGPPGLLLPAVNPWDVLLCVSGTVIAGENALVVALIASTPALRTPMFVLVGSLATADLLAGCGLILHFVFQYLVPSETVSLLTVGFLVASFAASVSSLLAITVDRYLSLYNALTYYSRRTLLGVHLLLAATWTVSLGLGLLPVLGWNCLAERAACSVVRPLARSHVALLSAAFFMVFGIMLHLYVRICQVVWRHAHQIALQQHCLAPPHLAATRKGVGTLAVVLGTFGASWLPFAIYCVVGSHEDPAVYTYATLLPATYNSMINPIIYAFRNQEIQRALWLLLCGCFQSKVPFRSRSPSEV
Assay: GPR6 antagonist functional cAMP assay (LANCE Ultra cAMP TR-FRET, CHO cells stably expressing GPR6)
Assay type: cell-based
Details: procedure of Example 24
pIC50: −log10 of the molar value.
readout.kind: pIC50

Take a look at these entries with their results.
1. Fc1ccc(OC2CC=C(c3nc4ccncc4nc3-c3ncco3)CC2)c(F)c1 (stereo not shown) = 4.52 to 6.00
2. CC(C)(O)C(=O)c1cncc2nc(-c3cnn(C(F)F)c3)c(N3CCN(Cc4ccc(F)cc4F)CC3)nc12 = 4.52 to 6.00
3. CCn1cc(-c2nc3cnc(C)cc3nc2N2CCC(Oc3ccc(F)cc3F)CC2)cn1 = 6.00 to 7.00
4. CC(C)(O)C(C)(O)c1cc2nc(N3CCC(Oc4ccc(F)cc4F)CC3)c(-c3cnn(C4CC4)c3)nc2cn1 (stereo not shown) = 6.00 to 7.00
5. CC(C)(O)[C@@](C)(O)c1cc2nc(-c3cnn(CF)c3)c(N3CCN(Cc4ccccc4F)CC3)nc2cn1 (single isomer, unassigned) = 6.00 to 7.00
6. COCCNc1cc2nc(-c3cnn(CF)c3)c(N3CCN(Cc4ccc(F)cc4F)CC3)nc2cn1 = 4.52 to 6.00
7. CC(=O)N1CCc2nc(N3CC[C@H](Oc4ccc(F)cc4F)[C@@H](F)C3)c(-c3cnn(C)c3)nc2C1 (single isomer, unassigned) = 4.52 to 6.00
8. CC(=O)N1CCc2nc(N3CCC(COc4ccccc4)C3)c(-c3cnn(C)c3)nc2C1 (stereo not shown) = 4.52 to 6.00
9. CC(=O)N1CCc2nc(N3CCC(Oc4ccc(F)cc4)C3)c(-c3cnn(C)c3)nc2C1 (stereo not shown) = 4.52 to 6.00
10. CC(=O)N1CCc2nc(N3CCC([C@H](F)c4ccc(F)cc4F)CC3)c(-c3cnn(C)c3)nc2C1 (single isomer, unassigned) = > 7.00

input: Query (molecule): COC[C@@](C)(O)c1cc2nc(N3CCC(Oc4ccc(F)cc4F)CC3)c(-c3cnn(C)c3)nc2cn1 (single isomer, unassigned) ; field requested: pIC50
output: 6.00 to 7.00

input: Query (molecule): Cn1cc(-c2nc3cc(C(O)C(C)(C)O)ncc3nc2N2CCN(Cc3ccc(F)cc3F)CC2)cn1 (stereo not shown) ; field requested: pIC50
output: > 7.00

input: Query (molecule): CCn1cc(-c2nc3cnc(C(O)C(C)(C)O)cc3nc2N2CCN(Cc3ccc(F)cc3F)CC2)cn1 (stereo not shown) ; field requested: pIC50
output: 6.00 to 7.00

input: Query (molecule): `COc1cc(F)c(CN2CCN(c3nc4c(nc3-c3cnn(C)c3)CN(C(C)=O)CC4)CC2)cc1Cl` ; field requested: pIC50
output: 4.52 to 6.00

input: Query (molecule): `CC(=O)N1CCc2nc(N3CCN(Cc4ccc(F)c(F)c4)CC3)c(-c3cnn(C)c3)nc2C1` ; field requested: pIC50
output: 4.52 to 6.00

input: Query (molecule): CC(C)(O)C(C)(O)c1cc2nc(-c3cnn(C4CC4)c3)c(N3CCC(Oc4ccc(F)cc4F)CC3)nc2cn1 (single isomer, unassigned) [Compound 722] ; field requested: pIC50
output: 6.00 to 7.00

input: Query (molecule): CC(=O)N1CCc2nc(N3CCC(COc4ccccc4F)C3)c(-c3cnn(C)c3)nc2C1 (stereo not shown) ; field requested: pIC50
output: 4.52 to 6.00

input: Query (molecule): `CC(=O)N1CCc2nc(N3CCC(Cc4cc(F)ccc4F)CC3)c(-c3ccc(F)c(N)n3)nc2C1` ; field requested: pIC50
output: > 7.00

input: Query (molecule): `CC(C)(O)COc1cc2nc(-c3cnn(CF)c3)c(N3CCN(Cc4ccc(F)cc4F)CC3)nc2cn1` ; field requested: pIC50
output: 6.00 to 7.00

input: Query (molecule): CC(=O)OC1CCN(c2nc3c(nc2-c2cnn(C)c2)CN(C(C)=O)CC3)C1 (stereo not shown) ; field requested: pIC50
output: ≤ 4.52

input: Query (molecule): CC(C)(O)[C@](C)(O)c1cc2nc(N3CCC(Oc4ccc(F)cc4F)CC3)c(-c3cnn(C(F)F)c3)nc2cn1 (single isomer, unassigned) ; field requested: pIC50
output: 6.00 to 7.00

input: Query (molecule): `CC(=O)N1CCc2nc(N3CCC(Oc4ccc(F)cc4F)CC3)c(-c3ccc(F)c(N)n3)nc2C1` ; field requested: pIC50
output: 6.00 to 7.00

input: Query (molecule): CCn1cc(-c2nc3c(nc2N2CCC(Oc4ccc(F)cc4F)CC2)CCN(C(=O)C2CCCN2)C3)cn1 (stereo not shown) ; field requested: pIC50
output: > 7.00

input: Query (molecule): CC(C)(O)[C@@H](O)c1cc2nc(N3CCN(Cc4cc(F)ccc4F)CC3)c(-c3cnn(CF)c3)nc2cn1 (single isomer, unassigned) ; field requested: pIC50
output: 6.00 to 7.00

input: Query (molecule): COCC(C)(O)c1cc2nc(-c3cnn(C)c3)c(N3CCC(Oc4ccc(F)cc4F)CC3)nc2cn1 (stereo not shown) ; field requested: pIC50
output: > 7.00

input: Query (molecule): CC(C)(O)C(C)(O)c1cc2nc(-c3cnn(C4CC4)c3)c(N3CCC(Oc4ccc(F)cc4F)CC3)nc2cn1 (single isomer, unassigned) [Compound 721] ; field requested: pIC50
output: 6.00 to 7.00

input: Query (molecule): `CC(=O)N1CCc2nc(N3CCN(Cc4ccc(Cl)cc4Cl)CC3)c(-c3ccc(F)c(N)n3)nc2C1` ; field requested: pIC50
output: 6.00 to 7.00

input: Query (molecule): `Cn1cc(-c2nc3cnccc3nc2N2CCc3c(cnn3-c3ccc(F)cc3F)C2)cn1` ; field requested: pIC50
output: ≤ 4.52

Where these numbers come from: patent US20260042755A1
